- Study System: full length (FL) LXRβ (Homo sapiens, UniProt P55055, DUP175-175)
- Construct: the full length (FL) proteins of LXRα (amino acids 1-447); NP005684; NP009052; expressed in transfected cells; host or cells: HEK293
- Sequence (P55055 with tags, fused parts or gaps DUP175-175): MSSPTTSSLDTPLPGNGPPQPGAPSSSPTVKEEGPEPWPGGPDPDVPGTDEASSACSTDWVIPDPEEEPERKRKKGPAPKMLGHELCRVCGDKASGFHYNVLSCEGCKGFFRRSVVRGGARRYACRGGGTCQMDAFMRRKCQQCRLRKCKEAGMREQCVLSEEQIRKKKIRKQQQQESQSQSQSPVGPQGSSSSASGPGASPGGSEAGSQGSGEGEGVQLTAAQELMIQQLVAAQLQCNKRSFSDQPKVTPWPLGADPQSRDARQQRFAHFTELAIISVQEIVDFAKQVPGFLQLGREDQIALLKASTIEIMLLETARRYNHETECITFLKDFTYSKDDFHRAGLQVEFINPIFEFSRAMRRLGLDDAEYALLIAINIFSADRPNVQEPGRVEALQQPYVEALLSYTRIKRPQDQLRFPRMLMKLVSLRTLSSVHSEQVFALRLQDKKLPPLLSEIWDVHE
- Assay Procedure: LXR Gal4 reporter transient transfection assay (FL-M2H Gal4β)
- Format: cell-based
- Cond: HEK293 cells, full length LXRβ; read-out: FL-M2H Gal4β (EC50 range)
pEC50: −log10 of the molar value.
Property Label: pEC50

Some compounds with recorded pEC50:
{"columns": ["Structure As Smiles", "Study System", "Experimental Value"],
 "data": [
  ["CC1CCN(S(=O)(=O)n2c(-c3cccc(N4CC(C(=O)O)C4)c3)c(-c3ccsc3C#N)c3cc(F)ccc32)CC1", "full length (FL) LXRβ (Homo sapiens, UniProt P55055, DUP175-175)", "6.00 to 7.00"],
  ["N#Cc1cccc(C#N)c1-c1c(-c2cccc(-c3ccc(S(=O)(=O)O)cc3Cl)c2)n(S(=O)(=O)c2ccc(C(F)F)cc2)c2ccc(F)cc12", "full length (FL) LXRβ (Homo sapiens, UniProt P55055, DUP175-175)", "> 7.00"],
  ["Cc1ccc(S(=O)(=O)n2c(-c3cccc(-c4ccc(C(=O)O)c(Cl)c4)c3)c(-c3ccsc3C#N)c3cc(F)ccc32)cc1", "full length (FL) LXRβ (Homo sapiens, UniProt P55055, DUP175-175)", "> 7.00"],
  ["N#Cc1cccc(C#N)c1-c1c(-c2cccc(-c3ccc(C(=O)O)cc3Cl)c2)n(S(=O)(=O)c2ccc(C(F)(F)F)nc2)c2ccc(F)cc12", "full length (FL) LXRβ (Homo sapiens, UniProt P55055, DUP175-175)", "> 7.00"],
  ["N#Cc1cccc(C#N)c1-c1c(-c2cccc(-c3ccc(C(=O)O)c(F)c3F)c2)n(S(=O)(=O)c2ccc(C(F)F)cc2)c2ccc(F)cc12", "full length (FL) LXRβ (Homo sapiens, UniProt P55055, DUP175-175)", "> 7.00"]
]}

# evaluate next
Lookup: // lookup pEC50 for Cc1ccc(S(=O)(=O)n2c(-c3cccc(N4CC(C(=O)NC(C)(C)C(=O)O)C4)c3)c(-c3ccsc3C#N)c3cc(F)ccc32)cc1
Found: 6.00 to 7.00
